# test-target: hERG channel (Homo sapiens)
# procedure-text: hERG electrophysiology, automated whole-cell patch clamp (Patchliner)
pIC50: −log10 of the molar value.
assay-readout: pIC50

| compound | test-target | assay-readout | observed |
| --- | --- | --- | --- |
| C[C@H]1C[C@H]([C@@H](N)c2cc(Cl)c(Cl)cc2O)CCN1C(=O)[C@H](O)CO [Compound 326, Trifluoroacetic Acid] | hERG channel (Homo sapiens) | pIC50 | < 4.52 |
| Cn1cc(C(=O)N2CCC([C@@H](N)c3cc(Cl)c(Cl)cc3O)CC2)ncc1=O [Compound 298, Trifluoroacetic Acid] | hERG channel (Homo sapiens) | pIC50 | > 4.52 |
| N[C@@H](c1cc(Cl)c(Cl)cc1O)C1CCN(C(=O)c2cn[nH]n2)CC1 [Compound 157, trifluoroacetic acid] | hERG channel (Homo sapiens) | pIC50 | < 4.52 |
| NC(c1cc(Cl)c(Cl)cc1O)C1CCNCC1 (centres unmarked) [Compound 1, Trifluoroacetic Acid] | hERG channel (Homo sapiens) | pIC50 | < 4.52 |
| Cc1cc(O)c([C@H](N)C2CCN(C(=O)[C@H](O)CO)CC2)cc1C [Compound 293, Trifluoroacetic Acid] | hERG channel (Homo sapiens) | pIC50 | < 4.52 |
| N[C@@H](c1cc(Cl)c(Cl)cc1O)C1CCN(C(=O)[C@H]2CNC(=O)C2)CC1 (single isomer, unassigned; isomer 2) [Compound 246] | hERG channel (Homo sapiens) | pIC50 | < 4.52 |
| CN1CC(C(=O)N2CCC([C@@H](N)c3cc(Cl)c(Cl)cc3O)CC2)NCC1=O (some centres unmarked) [Compound 300, Trifluoroacetic Acid] | hERG channel (Homo sapiens) | pIC50 | < 4.52 |
| N[C@@H](c1c(O)cc(Cl)c(Cl)c1F)C1CCN(C(=O)[C@H](O)CO)CC1 [Compound 291] | hERG channel (Homo sapiens) | pIC50 | < 4.52 |
| CC(O)(CO)C(=O)N1CCC([C@@H](N)c2cc(Cl)c(Cl)cc2O)CC1 (some centres unmarked) [Compound 201, Trifluoroacetic Acid] | hERG channel (Homo sapiens) | pIC50 | < 4.52 |
| N[C@@H](c1cc(Cl)c(Cl)cc1O)C1CCN(C(=O)C(O)CO)CC1 (some centres unmarked) [Compound 117] | hERG channel (Homo sapiens) | pIC50 | < 4.52 |
| C[C@@](O)(CO)C(=O)N1CCC([C@@H](N)c2cc(Cl)c(Cl)cc2O)CC1 (single isomer, unassigned; isomer 1) [Compound 217] | hERG channel (Homo sapiens) | pIC50 | < 4.52 |
| N[C@H](CO)C(=O)N1CCC([C@@H](N)c2cc(Cl)c(Cl)cc2O)CC1 [Compound 171] | hERG channel (Homo sapiens) | pIC50 | < 4.52 |
| CC(C)(O)CN1CCC(C(N)c2cc(Cl)c(Cl)cc2O)CC1 (centres unmarked) [Compound 56, Trifluoroacetic Acid] | hERG channel (Homo sapiens) | pIC50 | > 4.52 |
| CC(C)(O)CC(=O)N1CCC(C(N)c2cc(Cl)c(Cl)cc2O)CC1 (centres unmarked) [Compound 49, trifluoroacetic acid] | hERG channel (Homo sapiens) | pIC50 | > 4.52 |

* * *

# test-target: hERG channel (Homo sapiens, UniProt Q12809)
# Sequence (Q12809 whole entry): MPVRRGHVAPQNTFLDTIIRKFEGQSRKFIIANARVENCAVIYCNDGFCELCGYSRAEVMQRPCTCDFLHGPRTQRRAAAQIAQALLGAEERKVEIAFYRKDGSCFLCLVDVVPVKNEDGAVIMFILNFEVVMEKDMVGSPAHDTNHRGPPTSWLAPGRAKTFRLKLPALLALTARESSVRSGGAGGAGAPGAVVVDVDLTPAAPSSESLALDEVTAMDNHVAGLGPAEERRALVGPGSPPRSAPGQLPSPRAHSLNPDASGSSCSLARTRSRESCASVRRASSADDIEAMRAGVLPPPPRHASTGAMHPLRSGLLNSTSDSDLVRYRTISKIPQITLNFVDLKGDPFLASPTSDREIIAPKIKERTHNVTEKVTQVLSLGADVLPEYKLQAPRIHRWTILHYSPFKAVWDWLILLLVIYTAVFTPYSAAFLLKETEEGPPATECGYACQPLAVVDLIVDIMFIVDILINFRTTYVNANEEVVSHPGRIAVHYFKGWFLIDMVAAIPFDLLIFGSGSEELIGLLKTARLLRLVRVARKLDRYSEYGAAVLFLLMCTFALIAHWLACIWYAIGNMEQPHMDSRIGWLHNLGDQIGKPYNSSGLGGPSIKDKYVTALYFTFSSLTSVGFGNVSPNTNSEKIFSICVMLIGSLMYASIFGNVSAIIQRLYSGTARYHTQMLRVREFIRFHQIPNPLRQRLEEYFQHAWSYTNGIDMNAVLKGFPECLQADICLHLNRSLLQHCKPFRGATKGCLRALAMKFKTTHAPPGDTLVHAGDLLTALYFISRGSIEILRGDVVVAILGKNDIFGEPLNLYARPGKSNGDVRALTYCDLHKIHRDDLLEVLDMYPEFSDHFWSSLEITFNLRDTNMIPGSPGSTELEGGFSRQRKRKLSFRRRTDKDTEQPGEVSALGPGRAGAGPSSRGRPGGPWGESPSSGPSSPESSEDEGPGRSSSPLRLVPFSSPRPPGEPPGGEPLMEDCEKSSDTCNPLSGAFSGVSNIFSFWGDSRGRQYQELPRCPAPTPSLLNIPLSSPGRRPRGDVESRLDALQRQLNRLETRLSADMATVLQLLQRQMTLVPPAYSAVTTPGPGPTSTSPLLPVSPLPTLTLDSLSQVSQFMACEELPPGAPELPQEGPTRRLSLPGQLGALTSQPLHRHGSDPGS
# procedure-text: hERG electrophysiology, automated whole-cell patch clamp (Patchliner)
// values below are reported IC50

| molecule-smiles | IC50 |
| --- | --- |
| CC(C)(CO)C(=O)N1CCC([C@@H](N)c2cc(Cl)c(Cl)cc2O)CC1 | < 30 µM |
| Cn1cc(C(=O)N2CCC([C@@H](N)c3cc(Cl)c(Cl)cc3O)CC2)ccc1=O | > 30 µM |
| N[C@@H](c1c(O)ccc2ccccc12)C1CCN(C(=O)[C@H](O)CO)CC1 | > 30 µM |
| Cc1cc(O)c([C@H](N)C2CCN(C(=O)c3ccc(=O)n(CCO)c3)CC2)cc1Cl | > 30 µM |
| COCC(=O)N1CCC([C@@H](N)c2cc(Cl)c(Cl)cc2O)CC1 | < 30 µM |
| N[C@@H](c1cc(Cl)c(Cl)cc1O)C1CCN(C(=O)[C@H]2CNCCO2)CC1 | > 30 µM |
| N[C@@H](c1cc(Cl)c(Cl)cc1O)C1CCN(C(=O)c2cnoc2)CC1 | > 30 µM |
